Measured pIC50 accompanies every entry in the list below.
# Test system: HeLa
# experimental.details: Antiproliferative activity against human HeLa cells assessed as cell viability after 72 hrs by MTT assay
# Assay type: functional, cell-based
pIC50: −log10 of the molar value.
value.kind: pIC50

- compound: "COc1cc(C(=O)c2sc3ccccc3c2-c2ccc(Cl)cc2)cc(OC)c1OC"
  value.kind: "pIC50"
  comparison.sign: "="
  recorded.value: 5.28
- compound: "COc1cc(C(=O)c2sc3ccccc3c2-c2ccc(SC)cc2)cc(OC)c1OC"
  value.kind: "pIC50"
  comparison.sign: "="
  recorded.value: 5.46
- compound: "COc1ccccc1-c1c(C(=O)c2cc(OC)c(OC)c(OC)c2)sc2ccccc12"
  value.kind: "pIC50"
  comparison.sign: "="
  recorded.value: 5.30
- compound: "CCOc1ccc(-c2c(C(=O)c3cc(OC)c(OC)c(OC)c3)sc3ccccc23)cc1"
  value.kind: "pIC50"
  comparison.sign: "="
  recorded.value: 5.52
- compound: "COc1cc(C(=O)c2sc3ccccc3c2-c2ccc(F)cc2)cc(OC)c1OC"
  value.kind: "pIC50"
  comparison.sign: "="
  recorded.value: 5.52
- compound: "COc1cc(C(=O)c2sc3ccccc3c2Nc2ccc(Cl)cc2)cc(OC)c1OC"
  value.kind: "pIC50"
  comparison.sign: "="
  recorded.value: 5.43
- compound: "COc1cc(C(=O)c2sc3ccccc3c2Nc2ccccc2)cc(OC)c1OC"
  value.kind: "pIC50"
  comparison.sign: "="
  recorded.value: 5.57
- compound: "COc1ccc(Nc2c(C(=O)c3cc(OC)c(OC)c(OC)c3)sc3ccccc23)cc1"
  value.kind: "pIC50"
  comparison.sign: "="
  recorded.value: 5.11
- compound: "COc1cc(C(=O)c2sc3cc(C)ccc3c2Nc2ccc(C)cc2)cc(OC)c1OC"
  value.kind: "pIC50"
  comparison.sign: "="
  recorded.value: 6.01
- compound: "CCOc1ccc(Nc2c(C(=O)c3cc(OC)c(OC)c(OC)c3)sc3cc(C)ccc23)cc1"
  value.kind: "pIC50"
  comparison.sign: "="
  recorded.value: 5.37
- compound: "COc1ccc(-c2c(C(=O)c3cc(OC)c(OC)c(OC)c3)sc3ccccc23)cc1C"
  value.kind: "pIC50"
  comparison.sign: "<"
  recorded.value: 5.00
- compound: "COc1ccc(-c2c(C(=O)c3cc(OC)c(OC)c(OC)c3)sc3ccccc23)cc1"
  value.kind: "pIC50"
  comparison.sign: "="
  recorded.value: 5.38
- compound: "COc1ccc(-c2c(C(=O)c3cc(OC)c(OC)c(OC)c3)sc3ccccc23)c(OC)c1"
  value.kind: "pIC50"
  comparison.sign: "="
  recorded.value: 5.41
- compound: "COc1cc(C(=O)c2sc3ccccc3c2-c2ccc(C)cc2)cc(OC)c1OC"
  value.kind: "pIC50"
  comparison.sign: "="
  recorded.value: 5.43
- compound: "COc1cc(C(=O)c2sc3ccccc3c2Nc2ccc(C)cc2)cc(OC)c1OC"
  value.kind: "pIC50"
  comparison.sign: "="
  recorded.value: 5.46
- compound: "CCOc1ccc(Nc2c(C(=O)c3cc(OC)c(OC)c(OC)c3)sc3ccccc23)cc1"
  value.kind: "pIC50"
  comparison.sign: "="
  recorded.value: 6.15
- compound: "COc1cc(C(=O)c2sc3ccccc3c2-c2ccccc2)cc(OC)c1OC"
  value.kind: "pIC50"
  comparison.sign: "="
  recorded.value: 5.72
